B1: TNNI2 (parent)
chain: DWRKNIEEKSGMEGRKKMFESES

- Variants of: B1
- testName: protein stability index of a GFP-peptide fusion (GPS, HEK-293T) (PSI 1-6); higher = more stable;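 further: lentivirally expressed fusions sorted by FACS into six bins by GFP to DsRed ratio, PSI derived from sequencing read proportions per bin multiplied by bin number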
- testSettings: c terminus: native
endpointLabel: protein stability index
The answer should be written as a number, with no unit following it.

{"seqText": "DWRKNGEEKSGMEGRKKMFESES [I6G]", "protein stability index": 2.41}

The recorded protein stability index for DWRKNIEEKGGMEGRKKMFESES [S10G] is 2.42

For this variant ( DWRKNIEEKSGMEGRKKYFESES [M18Y] ), measured protein stability index is 1.85

Record summary for DWRKNIEEKSGMEGRKKMYESES [F19Y] : reported protein stability index = 2.22
